- protocol.summary: NCI Yeast Anticancer Drug Screen. Data for the rad50 strain (AID 155);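 further: 0% = growth of vehicle-only cultures of the same strain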
- study.conditions: S. cerevisiae rad50 strain growth inhibition; at 50.0 µM
Compounds without any hit were thinned out: in the full panel of roughly 79,000, 15% have a hit. Activity calls are given as the source filed them. No stated cut-off is given here; in the data, active means growth inhibition above about 70%; inactive means the rest.
Possible outcomes: 1.0 = active, 0.0 = inactive

compound=CCOC(=O)Cc1nc2ncncc2[nH]c1=O class_assignment=0.0
compound=O=C(CN1C(=O)c2ccccc2C1=O)Oc1ccccc1 class_assignment=0.0
compound=NC(=O)c1nnsc1NC=O class_assignment=0.0
compound=COc1cc([N+](=O)[O-])ccc1NC(=O)Nc1c(C)n(C)n(-c2ccccc2)c1=O class_assignment=0.0
compound=COc1ccccc1-c1nc2ccccc2c(=O)[nH]1 class_assignment=0.0
compound=CCOC(=O)c1ccc(C)cc1F class_assignment=0.0
compound=O=C(O)c1ccccc1SC(Sc1ccccc1C(=O)O)c1ccc2c(c1)OCO2 class_assignment=0.0
compound="NC(=O)N/N=C1/C=C2CCCCC2CC1 (stereo not given)" class_assignment=0.0
compound=CCOC(=S)SCc1cc(C(C)(C)C)c(O)c(C(C)(C)C)c1 class_assignment=0.0
compound="CCCCCCCCCCCCCCCCC1=C(C(=O)OC)NC(N)=NC1O (stereo not given)" class_assignment=0.0
compound=CC1(C)S[C@H](c2ccccc2C(=O)O)N[C@@H]1CC(=O)O class_assignment=0.0
compound=CCN(CC)Cc1ccccc1COC(=O)c1cccc(Cl)c1 class_assignment=0.0
compound=Cc1ccc(SCCSc2ccc(C)cc2)cc1 class_assignment=0.0
compound=CC(=O)Nc1nnnn1C class_assignment=0.0
compound=C=C(C)C(=O)OCCOCCOCCOC(=O)C(=C)C class_assignment=0.0
compound=O=C(NCc1ccccc1)/C(=C/c1ccc2c(c1)OCO2)NC(=O)c1ccccc1 class_assignment=0.0
compound=O=S(=O)([N-]c1nc2ccccc2nc1-[n+]1ccccc1)c1ccccc1 class_assignment=0.0
compound=COc1ccc(-c2cc(=O)c3cccc(CC(=O)O)c3o2)cc1 class_assignment=0.0
compound=Nc1[nH]c(=O)nc2nc(I)[nH]c12 class_assignment=0.0
compound=COC(=O)c1s/c(=N\C(=S)N(C)C)n(-c2ccc(Cl)cc2)c1C(=O)OC class_assignment=0.0
compound="CC(Br)C(=O)c1ccc2ncccc2c1 (stereo not given)" class_assignment=0.0
compound="O=C1c2cccnc2C(=O)C2CC3=C(CCCC3)CC12 (stereo not given)" class_assignment=1.0
compound=COC1=Cc2nc3ccccc3nc2OC1(C)C class_assignment=0.0
compound=Clc1ccccc1/C=C1\c2ccc(Br)cc2-c2cccc[n+]21 class_assignment=1.0
compound="N#CNC1=NC(N)C(c2nc3ccccc3[nH]2)=C(CCCC(=O)Nc2cccc([N+](=O)[O-])c2)N1 (stereo not given)" class_assignment=0.0
